assay: MTT cytotoxicity assay in HUVECs, in the dark; assay type: cell-based, human; details: human, HUVECs (human umbilical vein endothelial cells)
pIC50: −log10 of the molar value.
Documented pIC50 across a set of compounds
outcome_measure: pIC50

1) O=C(NCCCCCCCC[P+](c1ccccc1)(c1ccccc1)c1ccccc1)c1ccc(-c2oc3cc4ccccc4cc3c(=O)c2O)cc1 [Compound 3] ... 5.08
2) O=C(NCC[P+](c1ccccc1)(c1ccccc1)c1ccccc1)c1ccc(-c2oc3cc4ccccc4cc3c(=O)c2O)cc1.[Br-] [Compound 2] ... 5.82
3) O=C(NCCCCCCCC[P+](c1ccccc1)(c1ccccc1)c1ccccc1)c1ccc(C(=O)Oc2cc3ccccc3cc2C(=O)O)cc1 [Compound 5] ... 4.05
